System: CDK3
Conditions: concentration: 1 μM, replicates: in singlicate; n = 1;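 further: KINOMEscan kinase panel screen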
%Inh strictly less than 3% = true (1). Otherwise false (0).

Record excerpt, results attached:
- SMILES_RECORD: "COC(=O)Nc1nc2ccc(Oc3ccc(NC(=O)Nc4cc(C(F)(F)F)ccc4F)cc3)cc2n1C.Cl"
  ASSIGNED_CLASS: "true (1)"
- SMILES_RECORD: "c1ccc(-c2n[nH]cc2Nc2ccnc3ccccc23)nc1"
  ASSIGNED_CLASS: "false (0)"
- SMILES_RECORD: "CC(=O)N1CCN(c2ccc(Nc3nccc(-c4sc(C(C)C)nc4-c4cccc(NS(=O)(=O)c5cccc(Cl)c5)c4)n3)cn2)CC1"
  ASSIGNED_CLASS: "false (0)"
- SMILES_RECORD: "CN(C)Cc1ccc(-c2ccc3c(Nc4ccc(Oc5ccccn5)cc4)ccnc3c2)o1"
  ASSIGNED_CLASS: "true (1)"
- SMILES_RECORD: "O=C(Nc1cccc(-c2nn3ccccc3c2-c2ccnc(Nc3cccc(C(F)(F)F)c3)n2)c1)c1c(F)cccc1F"
  ASSIGNED_CLASS: "true (1)"
- SMILES_RECORD: "COc1cc(Nc2nccc(-c3c(-c4cccc(NC(=O)c5c(F)cccc5F)c4)nn4ncccc34)n2)cc(OC)c1OC"
  ASSIGNED_CLASS: "false (0)"

// next entry
In: Confirm or reject: %Inh of CCc1ccc(-c2ccc3c(c2)-c2c(cnn2C)S(=O)(=O)N3C)cc1 lies strictly below 3%
Out: true (1)

---

System: ERBB3
Conditions: concentration: 1 μM, replicates: in singlicate; n = 1
REPORTED_METRIC: %Inh (%)
One number for each entry, in %.

# count of solved cases: 2
- COMPOUND: "O=C(Nc1cccc(-c2nn3ccccc3c2-c2ccnc(Nc3cccc(F)c3)n2)c1)c1c(F)ccc(F)c1Cl [GSK357952]"
  %Inh [%]: 0
- COMPOUND: "CN(C)Cc1ccc(-c2ccc3c(Nc4ccc(Oc5ccccn5)cc4)ccnc3c2)o1 [GW567148]"
  %Inh [%]: 98.9

Quick batch: %Inh for everything below.
1. O=C(Nc1cccc(Oc2ccc3nc(NC(=O)C4CC4)cn3n2)c1)c1ccccc1C(F)(F)F
2. COc1cc(Nc2nccc(-c3c(-c4cccc(NC(=O)c5c(F)cccc5F)c4)nn4ncccc34)n2)cc(OC)c1OC [GSK327238]
3. COc1cc(Nc2nccc(N3CCC(NC(=O)Nc4cccc(C(C)=O)c4)C3)n2)cc(OC)c1OC (centres unmarked) [GSK1379753]

Out:
1. 52
2. 96
3. 0

---

System: LRRK2
Conditions: concentration: 1 μM, replicates: in singlicate; n = 1
REPORTED_METRIC: %Inh (%)
Numbers only, in %.

Study these solved cases before continuing.
- SMILES_RECORD: "O=C(Nc1ccccc1F)NC1CCN(c2ccnc(Nc3ccc(F)cc3)n2)CC1"
  UNIT_ABBREVIATION: "%"
  %Inh: 0
- SMILES_RECORD: "COc1cccc(-c2ccc3c(NC(=O)C4CC4)n[nH]c3n2)c1"
  UNIT_ABBREVIATION: "%"
  %Inh: 0
- SMILES_RECORD: "COCCOCCOc1cc2ncc3c4ccc(C#N)cc4[nH]c3c2cc1OC"
  UNIT_ABBREVIATION: "%"
  %Inh: 95.4
- SMILES_RECORD: "c1ccc(-c2n[nH]cc2Nc2ccnc3ccccc23)nc1"
  UNIT_ABBREVIATION: "%"
  %Inh: 78
- SMILES_RECORD: "CC(=O)N1CCN(c2ccc(Nc3nccc(-c4sc(C(C)C)nc4-c4cccc(NS(=O)(=O)c5cccc(Cl)c5)c4)n3)cn2)CC1"
  UNIT_ABBREVIATION: "%"
  %Inh: 24

Please state, for each entry, its recorded %Inh.
1. CSc1cccc2c(-c3ccncn3)c(-c3ccc(F)cc3)nn12
2. CCS(=O)(=O)c1ccc(OC)c(Nc2nccc(-c3c(-c4cccc(NC(=O)c5c(F)cccc5F)c4)nn4ncccc34)n2)c1
3. Cn1cc(-c2ccc3c(c2)CCN3C(=O)Cc2cccc(F)c2)c2c(N)ncnc21

Out:
1: 34; 2: 0; 3: 0

---

Tested on: PAK4
Settings: concentration: 1 μM, replicates: in singlicate; n = 1
REPORTED_METRIC: %Inh (%)
Answers are plain numbers, in %.

- COMPOUND: "COC(=O)Nc1nc2cc(Oc3ccc(NC(=O)Nc4cc(C(F)(F)F)ccc4F)cn3)ccc2[nH]1.Cl.Cl"
  UNIT_ABBREVIATION: "%"
  %Inh: 0
- COMPOUND: "Oc1cc(Nc2ccnc3cc(I)ccc23)ccc1F"
  UNIT_ABBREVIATION: "%"
  %Inh: 0
- COMPOUND: "CN1CCN(CCCNc2nccc(-c3c(-c4ccc(F)cc4)nn4cc(C(F)(F)F)ccc34)n2)CC1"
  UNIT_ABBREVIATION: "%"
  %Inh: 0
- COMPOUND: "Cl.c1ccc(-c2ccc3c(Nc4ccc5[nH]ncc5c4)ccnc3c2)nc1"
  UNIT_ABBREVIATION: "%"
  %Inh: 0

For each entry beneath this line, provide reported %Inh.
1. COc1cccc(-c2ccc3c(NC(=O)C4CC4)n[nH]c3n2)c1
2. Cn1cc(-c2[nH]c3cc(NC(=O)[C@H](N)C4CCCCC4)cc4c3c2C=NNC4=O)cn1
3. COc1ccc(Nc2nccc(N3CCC(NC(=O)Nc4cccc(OC)c4)C3)n2)cc1 (stereo not drawn)
4. COCCOCCOc1cc2ncc3c4ccc(C#N)cc4[nH]c3c2cc1OC
5. Cl.NC(=O)c1cccc(Nc2nccc(Nc3ccc(Oc4c(Cl)cccc4Cl)c(Cl)c3)n2)c1

Out:
[0, 99.5, 0, 19, 0]

---

Tested on: MEK1
Construct: gene MAP2K1
Conditions: concentration: 1 μM, replicates: in singlicate; n = 1
REPORTED_METRIC: %Inh
// unit must come after the numeric part

Worked examples follow.
- COMPOUND: "COc1ccc(Nc2nccc(NCCNC(=O)c3cc4ccccc4s3)n2)cc1 [GSK1379896]"
  %Inh: "0%"
- COMPOUND: "COc1ccc(-c2coc3ccc(-c4nnc(SCc5ccc(OC)c(C(F)(F)F)c5)o4)cc23)cc1"
  %Inh: "13%"

Documented %Inh of Cc1ccc(S(=O)(=O)Nc2ccc(Nc3nccc(Nc4cccc5[nH]ncc45)n3)cc2)cc1 [GSK581271] : 0%

---

Tested on: IKK-epsilon
Construct: gene IKBKE
Details: concentration: 1 μM, replicates: in singlicate; n = 1
So I've got a bunch of compounds here, and I need their %Inh values.
Numbers only, in %.

A selection of reference data follows.
- COMPOUND: "COc1cc(Nc2nccc(N3CCC(NC(=O)c4cc5ccccc5s4)C3)n2)cc(OC)c1OC (stereo not shown)"
  SYSTEM_TESTED: "IKK-epsilon"
  UNIT_ABBREVIATION: "%"
  NUMERIC_RESULT: 6
- COMPOUND: "C[C@@H]1CC[C@@H](C(=O)Nc2ccccc2)CN1c1cc(-c2ccc3c(N)n[nH]c3c2)nc(N)n1"
  SYSTEM_TESTED: "IKK-epsilon"
  UNIT_ABBREVIATION: "%"
  NUMERIC_RESULT: 25
- COMPOUND: "O=c1[nH]cc(-c2ccc(N3CCOCC3)cc2)c2sc(-c3cn[nH]c3)cc12"
  SYSTEM_TESTED: "IKK-epsilon"
  UNIT_ABBREVIATION: "%"
  NUMERIC_RESULT: 34

Now, please, on to the next compound.
Looking up CN1CCN(Cc2cccc(-c3ccc4c(Nc5ccc(Oc6ccccc6)cc5)ccnc4c3)c2)CC1 , I found its %Inh recorded as 12

---

Test system: CAMK4
Settings: concentration: 1 μM, replicates: in singlicate; n = 1
REPORTED_METRIC: %Inh (%)
One number for each entry, in %.

Previously resolved entries follow.
- COMPOUND: "COc1ccc(-c2coc3ccc(-c4nnc(SCc5ccc(OC)c(C(F)(F)F)c5)o4)cc23)cc1"
  NUMERIC_RESULT: 12
- COMPOUND: "COCCOCCOc1cc2ncc3c4ccc(C#N)cc4[nH]c3c2cc1OC"
  NUMERIC_RESULT: 0
- COMPOUND: "Cl.Cl.NCC(NCc1ccc(-c2ccnc3[nH]ccc23)s1)c1ccccc1 (stereo not drawn)"
  NUMERIC_RESULT: 0
- COMPOUND: "O=C(Nc1n[nH]c2nc(-c3ccc(O)cc3)ccc12)C1CC1"
  NUMERIC_RESULT: 0
- COMPOUND: "Cc1ccc(F)c(C(=O)Nc2cccc(-c3nn4ccccc4c3-c3ccnc(Nc4cccc(F)c4)n3)c2)c1F"
  NUMERIC_RESULT: 11

For each entry beneath this line, provide reported %Inh.
1. COc1cc(Nc2nccc(-c3c(-c4cccc(NC(=O)c5c(F)cccc5F)c4)nn4ccccc34)n2)cc(OC)c1OC
2. O=C(Nc1cccc(-c2nn3ncccc3c2-c2ccnc(Nc3ccccc3)n2)c1)c1c(F)cccc1F
3. COc1ccc(CNC(=O)NC2CCN(c3ccnc(Nc4ccc(F)cc4)n3)CC2)cc1
4. Fc1ccc(-c2ncn(C3CCNCC3)c2-c2ccnc(Oc3ccc(-c4ccccc4)cc3)n2)cc1

Out:
1. 30
2. 0
3. 0
4. 0
